- system: T1, human TGFβ2, mature receptor-binding domain (human, UniProt P09858 303-414 (pig entry), The mature TGFβ2 is a disulfide-linked homodimer of this 112-residue chain. The 4A11 epitope spans both monomers (p-1207).)
- T1 sequence: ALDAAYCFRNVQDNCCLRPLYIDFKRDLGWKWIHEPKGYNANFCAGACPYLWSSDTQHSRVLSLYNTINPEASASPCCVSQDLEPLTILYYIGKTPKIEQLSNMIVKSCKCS
- experimental.details: cell-based or functional assay
Give HEKBlue TGFβ blocking IC50 for every item shown.
Numbers only, in nM.

Solved entries:
h4A11.v7.14 (antibody, human IgG1, kappa, N297G, V domains shown) VH: EQQLQESGPGLVKPSETLSLTCTVTGFSLSSYTVNWVRQPAGKGLEWIGYISYGGSAYYASWANGRFTISKDSSKNQVSLKLSSVTAADTAVYYCARHMQVGGAPTGSMAAFDPWGPGTLVTVSS VL: EAVLTQSPGTLSLSPGERATLSCQSSQSVYNNNYLSWFQQKPGQPPRLLIYGASTLTSGVPDRFSGSGSGTDFTLTISRLEPEDFAVYYCAGGYSGSSDKYAFGGGTKVEIKR: 0.35
h4A11.v7.7 (antibody, V domains shown) VH: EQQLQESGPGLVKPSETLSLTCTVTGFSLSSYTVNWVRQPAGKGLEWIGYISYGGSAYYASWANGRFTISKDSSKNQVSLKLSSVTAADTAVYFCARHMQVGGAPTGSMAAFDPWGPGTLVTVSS VL: EAVLTQSPGTLSLSPGERATLSCQSSQSVYNNNYLSWFQQKPGQPPRLLIYGASTLTSGIPDRFSGSGSGTDFTLTISRLEPEDFAVYYCAGGYSGSSDKYAFGGGTKVEIK: 0.04
h4A11.v7.9 (antibody, human IgG1, kappa, N297G, V domains shown) VH: EQQLQESGPGLVKPSETLSLTCTVTGFSLSSYTVNWIRQPAGKGLEWIGYISYGGSAYYASWANGRFTISKDSSKNQVSLKLSSVTAADTAVYFCARHMQVGGAPTGSMAAFDPWGPGTLVTVSS VL: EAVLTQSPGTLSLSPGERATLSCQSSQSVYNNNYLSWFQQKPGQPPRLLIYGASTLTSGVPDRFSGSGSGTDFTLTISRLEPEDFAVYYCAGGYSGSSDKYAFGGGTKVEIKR: 0.08

In the following, a different binder is considered.
Query: What measured HEKBlue TGFβ blocking IC50 goes with h4A11.v7.4 (antibody, V domains shown) VH: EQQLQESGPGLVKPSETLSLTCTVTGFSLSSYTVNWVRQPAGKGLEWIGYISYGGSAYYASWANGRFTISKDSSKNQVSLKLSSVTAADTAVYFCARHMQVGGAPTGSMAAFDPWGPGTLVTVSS VL: EIVLTQSPGTLSLSPGERATLSCQSSQSVYNNNYLSWFQQKPGQPPRLLIYGASTLTSGVPDRFSGSGSGTDFTLTISRLEPEDFAVYYCAGGYSGSSDKYAFGGGTKVEIK ?
Reply: 0.01
